System: 855422-203-R-J1-PDC complex spheroid growth
Assay: Anticancer human tumor 855422-203-R-J1-PDC patient-derived bladder carcinoma cell line growth inhibition [AhR]
Conditions: second compound 3.16 µM; first compound 3.16 µM; hits give low values
Hi! Just check whether viability, T/C is below 90%. Below gives rule met, equal or above gives rule not met.

Q: Dear reviewer, please state whether NS(=O)(=O)OCC1CC(n2ccc3c(NC4CCc5ccccc54)ncnc32)CC1O (stereo unspecified) + Cc1ccccc1N=Nc1ccc(NC(=O)c2ccnn2C)c(C)c1 has viability, T/C strictly beneath 90%.
Ans: rule met

Q: Dear reviewer, please state whether COc1cccc2c1C(=O)c1c(O)c3c(c(O)c1C2=O)CC(O)(C(=O)CO)CC3OC1CC(N)C(O)C(C)O1 (stereo unspecified) + Cc1ccccc1N=Nc1ccc(NC(=O)c2ccnn2C)c(C)c1 has viability, T/C strictly beneath 90%.
Ans: rule met

Q: Dear reviewer, please state whether Nc1ccccc1NC(=O)c1ccc(CNC(=O)OCc2cccnc2)cc1 + Cc1ccccc1N=Nc1ccc(NC(=O)c2ccnn2C)c(C)c1 has viability, T/C strictly beneath 90%.
Ans: rule met

Q: Dear reviewer, please state whether O=C(c1cc(Cc2n[nH]c(=O)c3ccccc23)ccc1F)N1CCN(C(=O)C2CC2)CC1 + CC(CO)NC(=O)c1cc(-c2ccc(Cl)cc2)nn(-c2cnn(C)c2)c1=O has viability, T/C strictly beneath 90%.
Ans: rule not met

Q: Dear reviewer, please state whether CC1(C)CCC(CN2CCN(c3ccc(C(=O)NS(=O)(=O)c4ccc(NCC5CCOCC5)c([N+](=O)[O-])c4)c(Oc4cnc5[nH]ccc5c4)c3)CC2)=C(c2ccc(Cl)cc2)C1 + CC(CO)NC(=O)c1cc(-c2ccc(Cl)cc2)nn(-c2cnn(C)c2)c1=O has viability, T/C strictly beneath 90%.
Ans: rule not met

Q: Dear reviewer, please state whether Nc1ccn(C2OC(CO)C(O)C2(F)F)c(=O)n1 (stereo unspecified) + CC(CO)NC(=O)c1cc(-c2ccc(Cl)cc2)nn(-c2cnn(C)c2)c1=O has viability, T/C strictly beneath 90%.
Ans: rule met

###

Test system: 855422-203-R-J1-PDC complex spheroid growth
Assay: Anticancer human tumor 855422-203-R-J1-PDC cell line growth inhibition [AhR];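 note: spheroids exposed to agents for seven days before readout; percent of DMSO vehicle control luminescence viability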
Details: second compound 1 µM; first compound 0.00316 µM; hits give low values
MEASURED ATTRIBUTE: viability, T/C (%)
Give just the number in %; leave the unit off.

Q: Fill in: viability, T/C of Cn1ncnc1C1c2n[nH]c(=O)c3cc(F)cc(c23)NC1c1ccc(F)cc1 (stereo not drawn) + CC(CO)NC(=O)c1cc(-c2ccc(Cl)cc2)nn(-c2cnn(C)c2)c1=O is ___
Ans: 96.2

Q: Fill in: viability, T/C of CC[C@@]1(O)C(=O)OCc2c1cc1n(c2=O)Cc2cc3c(CN(C)C)c(O)ccc3nc2-1 + Cc1cncc(-c2nc(NCCc3c[nH]c4ccccc34)c3ncn(C(C)C)c3n2)c1 is ___
Ans: 80.8

Q: Fill in: viability, T/C of CC1COCCN1c1cc(-c2ccnn2C)c2ccnc(-c3ccn[nH]3)c2n1 (stereo not drawn) + CC(CO)NC(=O)c1cc(-c2ccc(Cl)cc2)nn(-c2cnn(C)c2)c1=O is ___
Ans: 97.3

###

System: 855422-203-R-J1-PDC complex spheroid growth
Test: Anticancer human tumor 855422-203-R-J1-PDC cell line growth inhibition [AhR];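 note: spheroids exposed to agents for seven days before readout; percent of DMSO vehicle control luminescence viability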
Settings: second compound 0.1 µM; first compound 0.316 µM; hits give low values
MEASURED ATTRIBUTE: viability, T/C (%)
Give just the number in %; leave the unit off.

Q: Fill in: viability, T/C of CC1COCCN1c1cc(-c2ccnn2C)c2ccnc(-c3ccn[nH]3)c2n1 (stereo not drawn) + Cc1ccccc1N=Nc1ccc(NC(=O)c2ccnn2C)c(C)c1 is ___
Ans: 67.6

Q: Fill in: viability, T/C of COc1ccc([C@@H](O)c2cc(-c3ncnc4cc(N5CCOCC5)ccc34)c(F)cc2Cl)nn1 + Cc1cncc(-c2nc(NCCc3c[nH]c4ccccc34)c3ncn(C(C)C)c3n2)c1 is ___
Ans: 93.7

Q: Fill in: viability, T/C of CC1COCCN1c1cc(C2(S(C)(=N)=O)CC2)nc(-c2ccnc3[nH]ccc23)n1 (stereo not drawn) + CC(CO)NC(=O)c1cc(-c2ccc(Cl)cc2)nn(-c2cnn(C)c2)c1=O is ___
Ans: 92.3

Q: Fill in: viability, T/C of CC1COCCN1c1cc(-c2ccnn2C)c2ccnc(-c3ccn[nH]3)c2n1 (stereo not drawn) + CC(CO)NC(=O)c1cc(-c2ccc(Cl)cc2)nn(-c2cnn(C)c2)c1=O is ___
Ans: 61.4

Q: Fill in: viability, T/C of O=C(c1cc(Cc2n[nH]c(=O)c3ccccc23)ccc1F)N1CCN(C(=O)C2CC2)CC1 + Cc1ccccc1N=Nc1ccc(NC(=O)c2ccnn2C)c(C)c1 is ___
Ans: 99.3

Q: Fill in: viability, T/C of COc1cc(C2c3cc4c(cc3C(OC3OC5COC(C)OC5C(O)C3O)C3COC(=O)C23)OCO4)cc(OC)c1O (stereo not drawn) + Cc1ccccc1N=Nc1ccc(NC(=O)c2ccnn2C)c(C)c1 is ___
Ans: 60.8

Q: Fill in: viability, T/C of O=C(C=Cc1cccc(S(=O)(=O)Nc2ccccc2)c1)NO + CC(CO)NC(=O)c1cc(-c2ccc(Cl)cc2)nn(-c2cnn(C)c2)c1=O is ___
Ans: 91.1

Q: Fill in: viability, T/C of O=C(C=Cc1cccc(S(=O)(=O)Nc2ccccc2)c1)NO + Cc1cncc(-c2nc(NCCc3c[nH]c4ccccc34)c3ncn(C(C)C)c3n2)c1 is ___
Ans: 85.2

Q: Fill in: viability, T/C of Nc1ccccc1NC(=O)c1ccc(CNC(=O)OCc2cccnc2)cc1 + Cc1cncc(-c2nc(NCCc3c[nH]c4ccccc34)c3ncn(C(C)C)c3n2)c1 is ___
Ans: 76.4

Q: Fill in: viability, T/C of CC1COCCN1c1cc(-c2ccnn2C)c2ccnc(-c3ccn[nH]3)c2n1 (stereo not drawn) + Cc1cncc(-c2nc(NCCc3c[nH]c4ccccc34)c3ncn(C(C)C)c3n2)c1 is ___
Ans: 39.9

Q: Fill in: viability, T/C of CC(C)c1c(-c2ccccc2)nc2c(C#N)c[nH]n2c1=O + CC(CO)NC(=O)c1cc(-c2ccc(Cl)cc2)nn(-c2cnn(C)c2)c1=O is ___
Ans: 95.2

Q: Fill in: viability, T/C of CC1COCCN1c1cc(C2(S(C)(=N)=O)CC2)nc(-c2ccnc3[nH]ccc23)n1 (stereo not drawn) + Cc1ccccc1N=Nc1ccc(NC(=O)c2ccnn2C)c(C)c1 is ___
Ans: 97.4

Q: Fill in: viability, T/C of Nc1ccccc1NC(=O)c1ccc(CNC(=O)OCc2cccnc2)cc1 + CC(CO)NC(=O)c1cc(-c2ccc(Cl)cc2)nn(-c2cnn(C)c2)c1=O is ___
Ans: 92
